Every entry's value here was drawn from patent US20220177587A1.

biological target: CD28 (human) (UniProt P10747); assay: flow cytometry, Jurkat/IL2 reporter cells (endogenous CD28)
Assignment: determine reported MFI at 33.3 nM for the given binders.
Form field: result (number plus unit)

MFI at 33.3 nM for variant CD80 IgV-Fc V22A/E23D/Q33L/E35D/M47V (Fc fusion) VIHVTKEVKEVATLSCGHNVSADELAQTRIYWLKDKKMVLTMMSGDVNIWPEYKNRTIFDITNNLSIVILALRPSDEGTYECVVLKYEKDAFKREHLAEVTLSVKAD ? 274 MFI

MFI at 33.3 nM for variant CD80 IgV-Fc A26E/E35D/M43T/M47L/L85Q/R94Q (Fc fusion) VIHVTKEVKEVATLSCGHNVSVEELEQTRIYWQKDKKMVLTMTSGDLNIWPEYKNRTIFDITNNLSIVILALRPSDEGTYECVVQKYEKDAFKQEHLAEVTLSVKAD ? 260 MFI

MFI at 33.3 nM for variant CD80 IgV-Fc E35D/M47V/A71G/L85M/L97Q (Fc fusion) VIHVTKEVKEVATLSCGHNVSVEELAQTRIYWQKDKKMVLTMMSGDVNIWPEYKNRTIFDITNNLSIVILGLRPSDEGTYECVVMKYEKDAFKREHQAEVTLSVKAD ? 339 MFI

MFI at 33.3 nM for variant CD80 IgV-Fc H18Y/E35D/V68M/L97Q (Fc fusion) VIHVTKEVKEVATLSCGYNVSVEELAQTRIYWQKDKKMVLTMMSGDMNIWPEYKNRTIFDITNNLSIMILALRPSDEGTYECVVLKYEKDAFKREHQAEVTLSVKAD ? 299 MFI

MFI at 33.3 nM for variant CD80 IgV-Fc Q33L/E35D/T41S/M43I (Fc fusion) VIHVTKEVKEVATLSCGHNVSVEELAQTRIYWLKDKKMVLSMISGDMNIWPEYKNRTIFDITNNLSIVILALRPSDEGTYECVVLKYEKDAFKREHLAEVTLSVKAD ? 433 MFI

MFI at 33.3 nM for variant CD80 IgV-Fc H18L/V22A/E35D/M47L/N48T/L85Q (Fc fusion) VIHVTKEVKEVATLSCGLNVSAEELAQTRIYWQKDKKMVLTMMSGDLTIWPEYKNRTIFDITNNLSIVILALRPSDEGTYECVVQKYEKDAFKREHLAEVTLSVKAD ? 434 MFI
